# Study Target: voltage-dependent T-type calcium channel subunit alpha-1G (Cav3.2) (Homo sapiens, UniProt O95180)
# Sequence (O95180 whole entry): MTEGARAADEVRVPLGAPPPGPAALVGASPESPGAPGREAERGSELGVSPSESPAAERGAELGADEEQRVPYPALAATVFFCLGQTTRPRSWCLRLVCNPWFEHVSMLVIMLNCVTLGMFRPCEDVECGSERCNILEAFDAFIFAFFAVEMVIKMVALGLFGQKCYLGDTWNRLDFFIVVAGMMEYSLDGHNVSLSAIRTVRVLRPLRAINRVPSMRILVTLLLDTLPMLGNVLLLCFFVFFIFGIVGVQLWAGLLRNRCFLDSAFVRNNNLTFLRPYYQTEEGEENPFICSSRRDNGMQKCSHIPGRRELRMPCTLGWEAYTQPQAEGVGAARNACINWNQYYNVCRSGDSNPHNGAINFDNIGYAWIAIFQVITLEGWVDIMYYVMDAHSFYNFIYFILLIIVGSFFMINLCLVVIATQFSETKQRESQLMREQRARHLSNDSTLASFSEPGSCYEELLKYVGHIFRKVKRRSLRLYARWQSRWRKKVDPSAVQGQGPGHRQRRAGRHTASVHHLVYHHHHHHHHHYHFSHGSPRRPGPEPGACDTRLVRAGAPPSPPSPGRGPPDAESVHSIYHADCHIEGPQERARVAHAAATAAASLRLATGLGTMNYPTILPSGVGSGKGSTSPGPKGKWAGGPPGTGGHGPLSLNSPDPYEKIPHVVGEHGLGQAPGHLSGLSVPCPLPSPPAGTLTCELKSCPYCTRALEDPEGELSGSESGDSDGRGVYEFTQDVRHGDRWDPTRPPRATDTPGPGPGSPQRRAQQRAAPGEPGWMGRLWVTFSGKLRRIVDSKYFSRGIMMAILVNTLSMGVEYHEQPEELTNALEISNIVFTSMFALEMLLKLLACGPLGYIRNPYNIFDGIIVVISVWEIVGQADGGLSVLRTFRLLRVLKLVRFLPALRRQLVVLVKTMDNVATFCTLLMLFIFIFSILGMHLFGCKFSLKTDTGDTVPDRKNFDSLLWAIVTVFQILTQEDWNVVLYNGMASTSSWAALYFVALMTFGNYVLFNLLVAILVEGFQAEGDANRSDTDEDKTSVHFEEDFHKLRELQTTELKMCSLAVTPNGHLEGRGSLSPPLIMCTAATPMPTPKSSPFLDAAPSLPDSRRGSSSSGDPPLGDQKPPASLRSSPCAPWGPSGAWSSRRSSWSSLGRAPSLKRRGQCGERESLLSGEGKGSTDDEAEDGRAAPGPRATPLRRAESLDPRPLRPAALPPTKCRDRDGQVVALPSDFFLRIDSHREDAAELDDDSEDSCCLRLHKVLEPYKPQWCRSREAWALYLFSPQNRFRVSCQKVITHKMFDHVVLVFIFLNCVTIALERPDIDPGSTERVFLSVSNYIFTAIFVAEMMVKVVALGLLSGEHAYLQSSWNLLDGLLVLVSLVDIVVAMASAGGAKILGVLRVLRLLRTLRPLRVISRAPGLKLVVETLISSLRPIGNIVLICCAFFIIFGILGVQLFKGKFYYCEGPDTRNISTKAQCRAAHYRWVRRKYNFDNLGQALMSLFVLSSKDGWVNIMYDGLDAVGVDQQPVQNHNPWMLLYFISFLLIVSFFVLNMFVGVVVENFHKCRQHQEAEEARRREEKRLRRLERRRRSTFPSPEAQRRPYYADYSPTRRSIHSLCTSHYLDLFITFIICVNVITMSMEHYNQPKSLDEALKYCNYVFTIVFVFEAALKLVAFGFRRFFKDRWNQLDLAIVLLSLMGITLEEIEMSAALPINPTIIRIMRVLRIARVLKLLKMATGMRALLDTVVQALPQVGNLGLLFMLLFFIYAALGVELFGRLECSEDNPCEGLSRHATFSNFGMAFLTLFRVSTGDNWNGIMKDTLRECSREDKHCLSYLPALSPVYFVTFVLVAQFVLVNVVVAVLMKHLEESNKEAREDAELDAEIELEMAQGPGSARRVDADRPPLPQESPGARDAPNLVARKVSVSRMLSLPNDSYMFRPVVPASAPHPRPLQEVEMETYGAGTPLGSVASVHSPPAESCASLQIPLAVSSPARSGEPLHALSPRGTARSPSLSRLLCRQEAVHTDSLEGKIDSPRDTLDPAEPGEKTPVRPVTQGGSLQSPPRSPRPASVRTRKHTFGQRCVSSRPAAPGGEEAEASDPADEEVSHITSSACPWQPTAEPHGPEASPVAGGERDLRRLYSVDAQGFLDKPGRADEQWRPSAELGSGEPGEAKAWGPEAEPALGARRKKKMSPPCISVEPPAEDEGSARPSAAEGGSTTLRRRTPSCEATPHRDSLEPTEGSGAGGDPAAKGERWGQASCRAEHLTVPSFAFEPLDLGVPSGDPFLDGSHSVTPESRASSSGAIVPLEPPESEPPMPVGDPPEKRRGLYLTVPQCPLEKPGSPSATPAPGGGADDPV
# Measurement Description: FLIPR calcium flux assay, HEK293 cells recombinantly expressing Cav3.2
# Particulars: Cav3.2-channel, Fluo-4-AM, 3 min incubation, stimulation with 10 mM CaCl2
pIC50: −log10 of the molar value.
Result Type: pIC50

Task item: Name the recorded pIC50 of the compound listed here: CCN(CC)c1ccc(CC(=O)Nc2ccn(Cc3ccc(OC)cc3)n2)cn1 [Example 191]
Reply: 7.03

Task item: Name the recorded pIC50 of the compound listed here: Cc1cn(C)c2ncc(CC(=O)Nc3ccn(Cc4ccc(F)c(C#N)c4)n3)cc12 [Example 321]
Reply: 7.04

Task item: Name the recorded pIC50 of the compound listed here: O=C(Cc1ccc(N2CCC(F)(F)C2)nc1)Nc1ccn(Cc2ccc(F)cc2)n1 [Example 122]
Reply: 7.72

Task item: Name the recorded pIC50 of the compound listed here: Cn1ccc2cc(CC(=O)Nc3ccn(Cc4ccc(C#N)cc4)n3)ccc21 [Example 296]
Reply: 7.77

a = N#Cc1ccc(Cn2ccc(NC(=O)Cc3ccc(N4CC(F)C4)nc3)n2)cc1 [Example 161]
b = Cc1ccc(Cn2ccc(NC(=O)Cc3ccc(C4(C)CC4)cc3)n2)nc1C#N [Example 377]
c = N#Cc1ccc(Cn2ccc(NC(=O)Cc3ccc(N4CCC4)nc3)n2)cc1 [Example 111]
Task item: Rank ascending by pIC50. Rank the items, then write their labels in that order.
Reply: c, a, b
(c: 5.88, a: 6.59, b: 7.60)
